Assay: Chinese healthy volunteer study CIB1353A101: PK
Details: human, in vivo, oral; CIBI3S3A101 (D1 = 10 mg); N 18; read-out: AUClast, NCA GM (CV %)

MOLECULE	AUC(0-t) / ng·h/mL
O=C(Cc1c(Cl)c[n+]([O-])cc1Cl)c1ccc(OC(F)F)c2c1OC1(CCS(=O)(=O)CC1)O2 [orismilast]	167

* * *

Assay: Clinical trial LP0058-1442 in healthy volunteers: PK of modified-release tablet vs immediate-release capsule
Assay type: in vivo, human
Conditions: human, plasma, oral, 60 mg, 1442 - Part 3 (D17 = 60 mg); N 9; read-out: AUClast, NCA GM (CV %)
PROPERTY_NAME: AUC(0-t)

O=C(Cc1c(Cl)c[n+]([O-])cc1Cl)c1ccc(OC(F)F)c2c1OC1(CCS(=O)(=O)CC1)O2 763 ng·h/mL

* * *

Experiment: Clinical trial LP0058-1442 in healthy volunteers: PK of modified-release tablet vs immediate-release capsule
Assay type: in vivo, human
Settings: human, plasma, oral, 30 mg, 1442 - Part 2 (Fast, 30 mg); N 9; read-out: AUClast, NCA GM (CV %)
PROPERTY_NAME: AUC(0-t) (ng·h/mL)

O=C(Cc1c(Cl)c[n+]([O-])cc1Cl)c1ccc(OC(F)F)c2c1OC1(CCS(=O)(=O)CC1)O2 480
